Items are presented alongside their recorded logPF.
System: Staphylococcus aureus
Test: Inhibition of multidrug resistance efflux pump in Staphylococcus aureus ATCC 29213 assessed as potentiation factor measured by reduction in weighted average of ciprofloxacin MIC by serial dilution method
No unit in the answer, only the number.

Check the records and state logPF for `CCCC(/C=C/C(=O)N1CCN(C)CC1)=C\c1ccc(OC)cc1`
2.11

Check the records and state logPF for `COc1ccc(/C=C(C)/C=C/C(=O)N2CCCCC2)cc1`
2.11

Check the records and state logPF for `CC(=O)CNC(=O)CC(=O)/C=C/C(C)=C/c1ccc2c(c1)OCO2`
2.49

Check the records and state logPF for `CCC(/C=C/C(=O)N1CCN(C)CC1)=C\c1ccc2c(c1)OCO2`
2.11

Check the records and state logPF for `CCC(/C=C/C(=O)N1CCCC1)=C\c1ccc2c(c1)OCO2`
1.95

Check the records and state logPF for `CCCCC(/C=N/c1ccccc1C(=O)O)=C\c1ccc(OC)cc1`
2

###

Items are presented alongside their recorded PF.
Test system: Staphylococcus aureus
Test: Inhibition of multidrug resistance efflux pump in Staphylococcus aureus ATCC 29213 assessed as potentiation factor measured by reduction in weighted average of ciprofloxacin MIC by serial dilution method; for PF: test concentration or dose not given here
No unit in the answer, only the number.

Previously resolved entries follow.
Output reported PF of the molecule CC(/C=C/C(=O)N1CCCC1)=C\c1ccc2c(c1)OCO2 (stereo in doubt; 12) on Staphylococcus aureus.
130

Output reported PF of the molecule `COc1ccc(/C=C(C)/C=C/C(=O)N2CCCCC2)cc1` on Staphylococcus aureus.
130

Output reported PF of the molecule `CCCC(/C=C/C(=O)N1CCCCC1)=C\c1ccc(OC)cc1` on Staphylococcus aureus.
210

New cases:
Output reported PF of the molecule `CCCC(/C=C/C(=O)N1CCCCC1)=C\c1ccc2c(c1)OCO2` on Staphylococcus aureus.
210

Output reported PF of the molecule `CC/C=C/C(=C/c1ccc2c(c1)OCO2)CC` on Staphylococcus aureus.
20

Output reported PF of the molecule `CCCCC(/C=C/C(=O)N1CCC(O)CC1)=C\c1ccc2c(c1)OCO2` on Staphylococcus aureus.
70

Output reported PF of the molecule `CCC(/C=C/C(=O)NCC(=O)OC)=C\c1ccc2c(c1)OCO2` on Staphylococcus aureus.
290

Output reported PF of the molecule `CC(/C=C/C(=O)N1CCC(O)CC1)=C\c1ccc2c(c1)OCO2` on Staphylococcus aureus.
210

###

System: Staphylococcus aureus
Test: Inhibition of multidrug resistance efflux pump in Staphylococcus aureus ATCC 29213 assessed as potentiation factor measured by reduction in weighted average of ciprofloxacin MIC by serial dilution method; for PF: test concentration or dose not given here
Property: PF

Previously resolved entries follow.
Check the records and state PF for `CCC(/C=C/C(=O)N1CCCCC1)=C\c1ccc(OC)c(OC)c1`
220

Check the records and state PF for CCC(CCC(=O)NCC(C)C)Cc1ccc2c(c1)OCO2 (stereo not given)
70

Check the records and state PF for `CCC(/C=C/CN1CCCCC1)=C\c1ccc2c(c1)OCO2`
70

Check the records and state PF for `CC(/C=C/C(=O)O)=C\c1ccc2c(c1)OCO2`
10

New cases:
Check the records and state PF for CCC(CO)NC(=O)/C=C/C(C)=C/c1ccc2c(c1)OCO2 (stereo not given)
30

Check the records and state PF for `C(/C=C/c1ccc2c(c1)OCO2)=C\CN1CCCCC1`
30

Check the records and state PF for `CC(/C=C/C(=O)N1CCN(C)CC1)=C\c1ccc2c(c1)OCO2`
130

Check the records and state PF for `CCC(/C=C/C(=O)N1CCC(O)CC1)=C\c1ccc2c(c1)OCO2`
210

Check the records and state PF for `CCC(/C=C/C(=O)Nc1ccccc1OC)=C\c1ccc2c(c1)OCO2`
60

Check the records and state PF for `CCCCC(/C=C/C(=O)N1CCCCC1)=C\c1ccc2c(c1)OCO2`
200

Check the records and state PF for `CCCCC(/C=N/O)=C\c1ccc(OC)cc1`
100

Check the records and state PF for `CC(=O)CNC(=O)CC(=O)/C=C/C(C)=C/c1ccc2c(c1)OCO2`
310

Check the records and state PF for CCC(CCCC(=O)NCC(=O)NCC(=O)OC)Cc1ccc2c(c1)OCO2 (stereo not given)
70

Check the records and state PF for CCCCC(/C=N/C(CC)CO)=C\c1ccc(OC)cc1 (stereo not given)
100
